Please respond with reported GI50 for every item in the list.
# Test system: NCI-H460
# ASSAY METHOD TEXT: NCI tumour cell line growth inhibition, 48 h
Active and inactive are the calls of the source. No stated cut-off is given here; in the data, active = GI50 up to about 1.1 µM and inactive = higher.

QUERY: // lookup GI50 for CCOc1ccc(NC(=O)C(=O)C(C(=O)c2ccc3ccccc3c2)C2OC(=O)c3ccccc32)cc1 (stereo not given)
RESULT: 5.09 µM (inactive)

QUERY: // lookup GI50 for Cc1ccc(C(=O)O)c(/C=C2\Cc3ccc(C)cc3C2=O)c1
RESULT: 56.4 µM (inactive)

QUERY: // lookup GI50 for O=C(Cn1c(C(=O)/C=C/c2ccc(Cl)cc2)nc2ccccc21)c1ccc(Cl)cc1
RESULT: 10.9 µM (inactive)

QUERY: // lookup GI50 for O=C(Nc1nc2ccccc2s1)c1cc([N+](=O)[O-])ccc1Cl
RESULT: 1.91 µM (inactive)

QUERY: // lookup GI50 for Cn1c2cc([N+](=O)[O-])ccc2c(=O)c2c(O)cc3c(c21)C=CC(C)(C)O3
RESULT: > 100 µM (inactive)

====

Please respond with reported GI50 for every item in the list.
# Tested on: IGROV-1
# ASSAY METHOD TEXT: NCI tumour cell line growth inhibition, 48 h
Activity calls are given as the source filed them. Cut-off read from the data, not from the text of the source: active = GI50 up to about 1.1 µM and inactive = higher.

QUERY: // lookup GI50 for C#Cc1cc(-c2nc3ccccc3s2)ccc1N
RESULT: 0.615 µM (active)

QUERY: // lookup GI50 for Cc1cn2cc(-c3ccncc3)nc2s1
RESULT: > 100 µM (inactive)

QUERY: // lookup GI50 for CN(C)c1ccc(/C=C2\C=Cc3ccccc32)cc1
RESULT: 53.7 µM (inactive)

QUERY: // lookup GI50 for C/C(=N\NC(=N)N)C(CN1CCOCC1)C(c1ccccc1)c1c(O)c2ccccc2oc1=O (stereo not given)
RESULT: > 100 µM (inactive)

QUERY: // lookup GI50 for Cc1cc2ccc(OC(=O)c3ccc(NC(=N)N)cc3)cc2oc1=O
RESULT: 55 µM (inactive)

QUERY: // lookup GI50 for CCS(=O)(=O)CCn1c(=O)c2c(ncn2C)n(C)c1=O
RESULT: > 100 µM (inactive)

QUERY: // lookup GI50 for CCOC(=O)C(NC(=O)c1ccc(/N=N/N(C)C)cc1)C(C)C (stereo not given)
RESULT: > 100 µM (inactive)

QUERY: // lookup GI50 for CCCCCCCCCCCCCCCCCCNc1ccn(C2OC(COP(=O)(O)OCC(COP(=O)(O)OCC3OC(n4cc(C)c(=O)[nH]c4=O)CC3N=[N+]=[N-])OCCCCCCCCCCCCCCCCCC)C(O)C2O)c(=O)n1 (stereo not given)
RESULT: 52.2 µM (inactive)

QUERY: // lookup GI50 for C/C(=N\Oc1cc(Cl)ncn1)c1ccccn1
RESULT: 21.9 µM (inactive)

QUERY: // lookup GI50 for Cc1cccc2c(O)c3c(O)cc(O)cc3nc12
RESULT: > 10 µM (inactive)

====

# Tested on: EKVX
# ASSAY METHOD TEXT: NCI tumour cell line growth inhibition, 48 h
The source made the active and inactive calls. No stated cut-off is given here; in the data, active = GI50 up to about 1.1 µM and inactive = higher.
Please respond with reported GI50 for every item in the list.

QUERY: // lookup GI50 for COc1cccc2c1[C@]1(O)C(O)CCCC21 (some centres not stated)
RESULT: > 10 µM (inactive)

QUERY: // lookup GI50 for [N-]=[N+]=NC12CC3C4CC5CC3C(C1)C(C5)C4C2
RESULT: > 100 µM (inactive)

QUERY: // lookup GI50 for Cc1ccc([N+](=O)[O-])cc1S(=O)(=O)Nc1ccc(C2=NOC(c3cccs3)C2)cc1 (configuration not stated)
RESULT: 19.9 µM (inactive)

QUERY: // lookup GI50 for CC1=NN(c2nc(N)nc(C(C)Sc3cc(Cl)c(C)cc3S(N)(=O)=O)n2)C(C)(C)C1 (configuration not stated)
RESULT: > 10 µM (inactive)

QUERY: // lookup GI50 for C/C(=N\NC(=N)N)C(CN1CCOCC1)C(c1ccccc1)c1c(O)c2ccccc2oc1=O (configuration not stated)
RESULT: > 100 µM (inactive)

QUERY: // lookup GI50 for COc1cc(C2C(Cl)C(=O)N2c2c(C)n(C)n(-c3ccccc3)c2=O)ccc1O (configuration not stated)
RESULT: 35 µM (inactive)

QUERY: // lookup GI50 for O=[N+]([O-])c1ccc2sc(/C=N/c3ccc(O)cc3)cc2c1
RESULT: 48.1 µM (inactive)

QUERY: // lookup GI50 for CCCCCCCCCCCCCP(=O)(O)NCC(N)=O
RESULT: > 100 µM (inactive)

QUERY: // lookup GI50 for CCOC(OCC)C(CCc1ccccc1)c1c(N)nc(N)[nH]c1=O (configuration not stated)
RESULT: 3.76 µM (inactive)

QUERY: // lookup GI50 for C/C(=N\NC(N)=O)C(CN1CCOCC1)C(c1ccccc1)c1c(O)c2ccccc2oc1=O (configuration not stated)
RESULT: > 100 µM (inactive)

QUERY: // lookup GI50 for CC(=O)Nc1nc(Cl)cc(NCC2(CO)CCC2)n1
RESULT: > 100 µM (inactive)

QUERY: // lookup GI50 for CN(C)c1ccc(C=c2c3cc(O)ccc3n3c2cc(-c2ccccc2)[n+]3C)cc1
RESULT: 1.96 µM (inactive)

QUERY: // lookup GI50 for CCN(CCCl)CCCCCNc1c2ccccc2nc2ccc(OC)cc12
RESULT: 3.79 µM (inactive)

QUERY: // lookup GI50 for CCOC(=O)c1csc(NC(=O)CCN2CCCC2)n1
RESULT: > 100 µM (inactive)

QUERY: // lookup GI50 for COc1cc([C@@H]2c3cc(O)c(OC)cc3C=C(C(N)=O)[C@H]2C(N)=O)ccc1O
RESULT: > 100 µM (inactive)

QUERY: // lookup GI50 for CC1=NN(C(=O)c2ccncc2)C(=O)C1/N=N/c1ccc(F)cc1 (configuration not stated)
RESULT: 20 µM (inactive)

QUERY: // lookup GI50 for CC1OC(c2ccccc2)=CC(OCc2ccccc2)[C@H]1OCc1ccccc1 (some centres not stated)
RESULT: > 10 µM (inactive)

QUERY: // lookup GI50 for Cc1cc(N(CCC#N)CCC#N)ccc1/C=C1N=C(/C=C\c2ccccc2)OC\1=O
RESULT: > 100 µM (inactive)

QUERY: // lookup GI50 for COc1ccc(C(=O)/C=C2\c3ccccc3C(=O)N2C)cc1
RESULT: 26.8 µM (inactive)

QUERY: // lookup GI50 for N=C(N)Nc1nc2cc(N)ccc2o1
RESULT: > 100 µM (inactive)

QUERY: // lookup GI50 for COC(=O)CC1(O)C(=O)OCc2c1cc1n(c2=O)Cc2c-1nc1ccccc1c2OC (configuration not stated)
RESULT: 11.1 µM (inactive)

QUERY: // lookup GI50 for Cc1ccc(S(=O)(=O)Nc2nnc(S(N)(=O)=O)s2)cc1
RESULT: > 100 µM (inactive)

====

Please respond with reported GI50 for every item in the list.
# System: HCT-116
# ASSAY METHOD TEXT: NCI tumour cell line growth inhibition, 48 h
The source made the active and inactive calls. Rule as the data show it: active = GI50 up to about 1.1 µM and inactive = higher.

QUERY: // lookup GI50 for Cc1cc(N(CCC#N)CCC#N)ccc1/C=C1N=C(/C=C\c2ccccc2)OC\1=O
RESULT: > 100 µM (inactive)

QUERY: // lookup GI50 for Cc1nc(O)nc(CC(O)(c2ccccc2)c2ccccc2)c1-c1ccccc1
RESULT: > 100 µM (inactive)

QUERY: // lookup GI50 for O=C(O)CC(NC(=O)Nc1ccc([N+](=O)[O-])cc1)C(=O)Nc1ccc([N+](=O)[O-])cc1 (configuration not stated)
RESULT: > 100 µM (inactive)

QUERY: // lookup GI50 for COC(=O)/C=C/COCC1C2CCC(=O)C21 (configuration not stated)
RESULT: > 100 µM (inactive)

QUERY: // lookup GI50 for COc1cccc2c1[C@]1(O)C(O)CCCC21 (some centres not stated)
RESULT: > 100 µM (inactive)

QUERY: // lookup GI50 for C[C@]12CC[C@H]3[C@@H](CC=C4C[C@@H](O)CC[C@@]43C)[C@@H]1C/C(=C\c1cccnc1)[C@@H]2O
RESULT: 25 µM (inactive)

QUERY: // lookup GI50 for CN(C)c1ccc(/C=C2\C=Cc3ccccc32)cc1
RESULT: 33.1 µM (inactive)

====

# Test system: SNB-75
# ASSAY METHOD TEXT: NCI tumour cell line growth inhibition, 48 h
Calls of active or inactive are those of the source. Cut-off read from the data, not from the text of the source: active = GI50 up to about 1.1 µM and inactive = higher.
ASSAY ENDPOINT: GI50

QUERY: Query for SNB-75: what GI50 does the record show for Clc1ccc(C(c2ccccc2Cl)C(Cl)Cl)cc1 (stereo unspecified) [MITOTANE] ?
RESULT: 15.2 µM (inactive)

QUERY: Query for SNB-75: what GI50 does the record show for Cc1c(C(=O)/C=C/c2ccccc2[N+](=O)[O-])[n+]([O-])c2ccccc2[n+]1[O-] ?
RESULT: 13.2 µM (inactive)

QUERY: Query for SNB-75: what GI50 does the record show for Cc1nc(Nc2ccccc2)sc1C(=O)CC(=O)C(=O)NC12CC3CC(CC(C3)C1)C2 ?
RESULT: 33.9 µM (inactive)

QUERY: Query for SNB-75: what GI50 does the record show for CN(C)CCSc1nccc(-c2cc3ccccc3s2)n1 ?
RESULT: 54 µM (inactive)

QUERY: Query for SNB-75: what GI50 does the record show for O=[N+]([O-])c1oc2ccc3ccccc3c2c1CCO ?
RESULT: 4.41 µM (inactive)

QUERY: Query for SNB-75: what GI50 does the record show for CC(C)=CCCC(C)CCOS(=O)C(F)(F)F (stereo unspecified) ?
RESULT: 20.5 µM (inactive)

QUERY: Query for SNB-75: what GI50 does the record show for C/C(CC(=O)Nc1ccc(C)c(C)c1)=N\NC(N)=O ?
RESULT: > 100 µM (inactive)

QUERY: Query for SNB-75: what GI50 does the record show for CCS(=O)(=O)CCn1c(=O)c2c(ncn2C)n(C)c1=O ?
RESULT: > 100 µM (inactive)

QUERY: Query for SNB-75: what GI50 does the record show for O=C(O)C1CC=CCC1C(=O)Nc1cccc(O)c1 (stereo unspecified) ?
RESULT: > 100 µM (inactive)

QUERY: Query for SNB-75: what GI50 does the record show for O=[N+]([O-])c1ccc(-c2nn3c(C45CC6CC(CC(C6)C4)C5)nnc3s2)c(Cl)c1 ?
RESULT: > 100 µM (inactive)

QUERY: Query for SNB-75: what GI50 does the record show for CC(=O)NC(C)(C)C1CCC(C)=C(c2ccccc2)C1 (stereo unspecified) ?
RESULT: 53.6 µM (inactive)
